Test system: hsa-mir-6850 loop
assay-overview: normalised indicator fluorescence (fraction of RNA + indicator signal without compound); higher = less displacement of indicator (weaker competition)
condition-summary: compound concentration: 5 uM; 30 min; indicator: TO-PRO-1 0.1 uM; RNA concentration: 0.1 uM
Counter-ions that a name gives are not always drawn.
quantity: normalised indicator fluorescence
Please respond with just the number, no unit label.

Examples with their reported normalised indicator fluorescence follow.
Exercise: For O=C(Nc1nc2ccc(NC(=O)C34CC5CC(CC(C5)C3)C4)cc2s1)c1ccccc1 , write its normalised indicator fluorescence.
Key: 0.997

Exercise: For NNC(=O)c1ccncc1 , write its normalised indicator fluorescence.
Key: 0.921

Exercise: For CCc1oc2ccccc2c1C(=O)c1cc(Br)c(O)c(Br)c1 , write its normalised indicator fluorescence.
Key: 0.95

Exercise: For O=C1CCc2ccccc2C1 , write its normalised indicator fluorescence.
Key: 0.996

Exercise: For O=c1cc(-c2ccc(O)c(-c3c(O)cc(O)c4c(=O)cc(-c5ccc(O)cc5)oc34)c2)oc2cc(O)cc(O)c12 , write its normalised indicator fluorescence.
Key: 1.07

Continuing:
Exercise: For CC(C)c1cc(C(C)C)c(CC(=O)NS(=O)(=O)Oc2c(C(C)C)cccc2C(C)C)c(C(C)C)c1 , write its normalised indicator fluorescence.
Key: 0.985

Exercise: For CC(C)=CCC[C@](C)(O[C@@H]1O[C@H](CO)[C@@H](O)[C@H](O)[C@H]1O)[C@H]1CC[C@]2(C)[C@@H]1[C@H](O)C[C@@H]1[C@@]3(C)CC[C@H](O)C(C)(C)[C@@H]3[C@@H](O[C@@H]3O[C@H](CO)[C@@H](O)[C@H](O)[C@H]3O[C@@H]3OC[C@@H](O)[C@H](O)[C@H]3O)C[C@]12C [Notoginsenoside R1] , write its normalised indicator fluorescence.
Key: 0.982

Exercise: For CN(C)C[C@@H]1CCn2cc(c3ccccc32)C2=C(C(=O)NC2=O)c2cn(c3ccccc23)CCO1 [Ruboxistaurin hydrochloride] , write its normalised indicator fluorescence.
Key: 0.894
